Data origin, for the record: patent US20220119518A1

Give % gated for every item shown.
Target: T1, CD66c (Cluster of Differentiation 66c) on cells (UniProt P40199 35-320, limits assumed)
T1 construct: whole, on cells; also called CEACAM6; CEACAM 6
T1 sequence (looked up): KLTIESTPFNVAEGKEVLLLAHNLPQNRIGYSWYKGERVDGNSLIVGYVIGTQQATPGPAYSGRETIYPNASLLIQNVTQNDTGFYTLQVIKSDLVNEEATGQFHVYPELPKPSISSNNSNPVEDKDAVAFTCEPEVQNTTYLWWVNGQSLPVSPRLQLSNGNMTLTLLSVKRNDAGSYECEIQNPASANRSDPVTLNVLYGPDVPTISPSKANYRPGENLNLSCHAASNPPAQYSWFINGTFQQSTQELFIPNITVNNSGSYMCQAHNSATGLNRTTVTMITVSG
Assay: flow cytometry on CD66c-positive A549 cells, FITC anti-human IgG
Answers are plain numbers, in %.

Known results for binders:
recombinant humanized anti-CD66c antibody Protein ID 3007 (Vk7 + VH6) (antibody, human IgG1, V domains shown, also called hu 3007; #43) VH: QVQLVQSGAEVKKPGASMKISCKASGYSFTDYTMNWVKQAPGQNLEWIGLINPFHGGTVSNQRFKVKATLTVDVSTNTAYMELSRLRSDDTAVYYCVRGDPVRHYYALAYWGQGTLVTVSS VL: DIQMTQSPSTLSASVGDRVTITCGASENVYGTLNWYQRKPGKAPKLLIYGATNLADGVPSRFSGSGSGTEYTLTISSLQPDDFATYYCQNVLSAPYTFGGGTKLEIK :: 71
anti-CD66c chimeric antibody 8F5 (antibody, human IgG1, V domains shown, also called chimeric 8F5; chi 8F5) VH: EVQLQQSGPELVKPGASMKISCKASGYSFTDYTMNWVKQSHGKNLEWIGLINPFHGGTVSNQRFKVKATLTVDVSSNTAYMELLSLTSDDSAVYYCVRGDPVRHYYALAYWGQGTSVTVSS VL: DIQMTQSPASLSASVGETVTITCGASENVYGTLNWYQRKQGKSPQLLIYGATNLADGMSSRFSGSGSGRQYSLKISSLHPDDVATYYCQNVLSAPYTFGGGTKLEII :: 73
recombinant humanized anti-CD66c antibody Protein ID 3043 (Vk8 + VH6) (antibody, V domains shown, also called hu 3043; #71) VH: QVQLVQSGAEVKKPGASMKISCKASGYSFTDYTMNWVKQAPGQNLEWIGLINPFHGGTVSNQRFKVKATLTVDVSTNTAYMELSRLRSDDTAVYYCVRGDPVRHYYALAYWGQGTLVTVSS VL: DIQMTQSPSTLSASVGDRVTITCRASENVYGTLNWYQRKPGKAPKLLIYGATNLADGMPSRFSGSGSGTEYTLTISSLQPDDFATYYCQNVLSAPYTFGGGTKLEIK :: 69

Consider now this further binder.
stdin: Could you share which % gated value was measured for recombinant humanized anti-CD66c antibody Protein ID 3004 (Vk7 + VH5) (antibody, human IgG1, V domains shown, also called #41) VH: QVQLVQSGAEVKKPGASVKISCKASGYSFTDYTMNWVRQAHGQNLEWIGLINPFHGGTVSNQRFKVKATLTVDVSTNTAYMELSRLRSDDTAVYYCVRGDPVRHYYALAYWGQGTLVTVSS VL: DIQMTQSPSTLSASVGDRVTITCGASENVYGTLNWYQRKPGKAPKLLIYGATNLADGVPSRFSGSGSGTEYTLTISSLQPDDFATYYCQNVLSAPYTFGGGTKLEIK ?
stdout: 71
